Parameter pKi: see the listing below.
Target: Recombinant human M3 receptor (Homo sapiens)
Construct: expressed in transfected cells; host or cells: CHO-K1 cells (membranes)
Sequence (P20309 whole entry): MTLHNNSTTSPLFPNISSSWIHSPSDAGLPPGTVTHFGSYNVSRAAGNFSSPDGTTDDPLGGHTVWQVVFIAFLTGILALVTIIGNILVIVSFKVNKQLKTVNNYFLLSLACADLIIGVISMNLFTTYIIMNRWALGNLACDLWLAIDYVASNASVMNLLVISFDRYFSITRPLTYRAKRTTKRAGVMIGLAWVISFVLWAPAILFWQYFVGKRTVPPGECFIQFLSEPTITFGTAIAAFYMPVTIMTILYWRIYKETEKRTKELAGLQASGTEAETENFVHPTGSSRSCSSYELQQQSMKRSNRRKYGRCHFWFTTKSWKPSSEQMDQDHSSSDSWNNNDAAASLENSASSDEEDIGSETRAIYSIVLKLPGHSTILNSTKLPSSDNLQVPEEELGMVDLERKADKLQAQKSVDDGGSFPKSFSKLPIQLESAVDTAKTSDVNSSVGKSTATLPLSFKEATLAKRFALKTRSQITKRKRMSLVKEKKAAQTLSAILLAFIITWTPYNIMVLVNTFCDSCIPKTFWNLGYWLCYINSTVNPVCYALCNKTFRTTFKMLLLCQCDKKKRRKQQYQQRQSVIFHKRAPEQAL
Experiment: biochemical
Assay type: binding
Conditions: SPA format; read-out: M3 Ki (SPA format)
pKi: −log10 of the molar value. Counter-ions that a name gives are not always drawn.

OC(c1ccccc1)(c1ccccc1)c1ncc(C[N+]23CCC(CC2)C(SCc2ccccc2)C3)o1 (stereo not shown) [Example 39] = 7.70 to 8.30
O[C@](c1ccccc1)(c1ncc(C[N+]23CCC(CC2)[C@@H](OCc2ccccc2)C3)o1)C1CCCC1 [Example 42, formate] = > 8.30
O[C@](c1ccccc1)(c1ncc(C[N+]23CCC(CC2)C(Sc2ccccc2)C3)o1)C1CCCCC1 (stereo partly shown) [Example 69] = > 8.30

Attention now shifts to the item below.
Supply reported pKi belonging to this compound: OC(c1ccccc1)(c1ccccc1)c1noc(C[N+]23CCC(CC2)[C@@H](Oc2ccc(F)cc2)C3)n1 [Example 95]
> 8.30
